Measured values drawn from patent US5426103A for this set.

ASSAYED SYSTEM: neutral endopeptidase (NEP) (Rattus norvegicus, UniProt P07861)
Sequence (P07861 1-750): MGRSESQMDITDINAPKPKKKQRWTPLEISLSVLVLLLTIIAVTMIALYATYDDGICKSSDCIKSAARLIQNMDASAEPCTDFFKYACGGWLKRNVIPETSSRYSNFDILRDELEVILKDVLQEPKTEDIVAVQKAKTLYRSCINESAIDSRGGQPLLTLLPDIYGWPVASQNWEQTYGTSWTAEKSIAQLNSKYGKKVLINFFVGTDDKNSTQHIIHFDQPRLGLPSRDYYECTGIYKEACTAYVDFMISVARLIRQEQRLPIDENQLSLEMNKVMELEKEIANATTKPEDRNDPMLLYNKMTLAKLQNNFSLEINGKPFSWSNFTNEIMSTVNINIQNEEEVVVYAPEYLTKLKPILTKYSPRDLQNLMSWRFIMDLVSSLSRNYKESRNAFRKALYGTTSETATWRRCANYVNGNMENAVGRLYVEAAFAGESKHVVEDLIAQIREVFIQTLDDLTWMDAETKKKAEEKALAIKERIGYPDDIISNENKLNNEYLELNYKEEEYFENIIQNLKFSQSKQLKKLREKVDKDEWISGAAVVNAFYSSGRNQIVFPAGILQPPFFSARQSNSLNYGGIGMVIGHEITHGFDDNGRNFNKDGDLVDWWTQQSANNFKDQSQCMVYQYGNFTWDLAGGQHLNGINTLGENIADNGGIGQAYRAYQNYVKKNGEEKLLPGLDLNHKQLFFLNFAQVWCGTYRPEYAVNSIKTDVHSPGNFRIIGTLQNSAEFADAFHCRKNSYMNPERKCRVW
MEASURED QUANTITY: IC50 (nM)

COMPOUND: O=C1N[C@H](C(=O)O)CSCCCCCCCC1CS (single isomer, unassigned)
MEASURED QUANTITY: IC50
RECORDED VALUE: 18
